Source: ChEMBL document CHEMBL1143879

Entries and their measured pIC50 follow.
TARGET OF ASSAY: C-C chemokine receptor type 1 (Homo sapiens)
PROTOCOL DETAILS: Antagonist activity at human CCR1 receptor expressed in THP1 cells assessed as human MIP-1-alpha-stimulated intracellular calcium level by FLIPR assay
Assay type: functional, cell-based, THP-1
On this scale, pIC50 is minus log10 of a concentration expressed in M (mol/L).

MOLECULE	pIC50
Cc1cccc(Cl)c1S(=O)(=O)N1CCC[C@H](N2CCC(O)(c3ccc(Cl)cc3)CC2)C1	6.32

Task item: Consider the molecule "O=C(NCCCN1CCC(O)(c2ccc(Cl)cc2)CC1)c1ccc2ccccc2c1" and give its measured pIC50.
Reply: 5.78

Task item: Consider the molecule "O=S(=O)(c1ccccc1Cl)N1CCC(N2CCC(O)(c3ccc(F)cc3)CC2)CC1" and give its measured pIC50.
Reply: 5.90

Task item: Consider the molecule "Cc1cccc(Cl)c1S(=O)(=O)NCCCN1CCC(O)(c2ccc(Cl)cc2)CC1" and give its measured pIC50.
Reply: 7.40

Task item: Consider the molecule CC1CC(N2CCC(O)(c3ccc(Cl)cc3)CC2)CCN1S(=O)(=O)c1ccccc1Br (stereo not given) and give its measured pIC50.
Reply: 6.92

---

Entries and their measured pIC50 follow.
TARGET OF ASSAY: C-C chemokine receptor type 1 (Homo sapiens)
PROTOCOL DETAILS: Displacement of [125I]MIP1-alpha from human CCR1 receptor expressed in THP1 cells
Assay type: cell-based, THP-1
On this scale, pIC50 is minus log10 of a concentration expressed in M (mol/L).

Task item: Consider the compound "O=S(=O)(c1ccc(Cl)c(Cl)c1Cl)N1CCC(N2CCC(O)(c3ccc(Cl)cc3)CC2)CC1" and give its measured pIC50.
Reply: 5.44

Task item: Consider the compound "CC1(N2CCC(O)(c3ccc(Cl)cc3)CC2)CCN(S(=O)(=O)c2c(Cl)cccc2Cl)CC1" and give its measured pIC50.
Reply: 5.38

Task item: Consider the compound "O=S(=O)(c1ccccc1Cl)N1CCC(N2CCC(O)(c3ccc(Cl)cc3)CC2)CC1" and give its measured pIC50.
Reply: 6.70

---

TARGET OF ASSAY: C-C chemokine receptor type 1 (Homo sapiens, UniProt P32246)
PROTOCOL DETAILS: Displacement of [125I]MIP1-alpha from human CCR1 receptor expressed in THP1 cells
Type: cell-based, THP-1
hey, just use y if measured IC50 is less than 400 nM, otherwise n

Worked examples follow.
COMPOUND	CAT
Cc1cccc(Cl)c1S(=O)(=O)NCCCN1CCC(O)(c2ccc(Cl)cc2)CC1	y
O=S(=O)(c1ccccc1)N1CCC(N2CCC(O)(c3ccc(Cl)cc3)CC2)CC1	n
O=S(=O)(NCCCN1CCC(O)(c2ccc(Cl)cc2)CC1)c1ccc(Cl)c(Cl)c1	n
CC1CC(N2CCC(O)(c3ccc(Cl)cc3)CC2)CCN1S(=O)(=O)c1ccccc1Br (centres undefined)	y
Cc1cccc(Cl)c1S(=O)(=O)N1CCC(N2CCC(O)(c3ccc(Cl)cc3)C2)CC1 (centres undefined)	n

Task item: I wonder whether "O=S(=O)(c1ccccc1Cl)N1CCC(N2CCC(O)(c3ccc(F)c(Cl)c3)CC2)CC1" has IC50 below 400 nM. Can you tell?
Reply: n

Task item: I wonder whether "Cc1cccc(Cl)c1S(=O)(=O)N1CCC(C)(N2CCC(O)(c3ccc(Cl)cc3)CC2)CC1" has IC50 below 400 nM. Can you tell?
Reply: n

Task item: I wonder whether "O=S(=O)(c1cccs1)N1CCC(N2CCC(O)(c3ccc(Cl)cc3)CC2)CC1" has IC50 below 400 nM. Can you tell?
Reply: n

---

TARGET OF ASSAY: C-C chemokine receptor type 1 (Homo sapiens, UniProt P32246)
PROTOCOL DETAILS: Displacement of [125I]MIP1-alpha from human CCR1 receptor expressed in THP1 cells
Assay type: cell-based, THP-1
QUANTITY: log10(IC50) (log10 of the value in nM)
A value of 2 here means IC50 of 100 in nM, since values are log10.

# annotated cases, reported log10(IC50) shown
CHEMICAL STRING	TARGET OF ASSAY	log10(IC50)
O=S(=O)(c1ccccc1Br)N1CCC[C@H](N2CCC(O)(c3ccc(Cl)cc3)CC2)C1	C-C chemokine receptor type 1 (Homo sapiens, UniProt P32246)	2.66
O=S(=O)(NCCCN1CCC(O)(c2ccc(Cl)cc2)CC1)c1ccc(OC(F)(F)F)cc1	C-C chemokine receptor type 1 (Homo sapiens, UniProt P32246)	3.95
O=S(=O)(NCCCN1CCC(O)(c2ccc(Cl)cc2)CC1)c1ccccc1OC(F)(F)F	C-C chemokine receptor type 1 (Homo sapiens, UniProt P32246)	2.54
O=S(=O)(NCCCN1CCC(O)(c2ccc(Cl)cc2)CC1)c1ccc(F)cc1	C-C chemokine receptor type 1 (Homo sapiens, UniProt P32246)	2.96
COc1ccc(S(=O)(=O)NCCCN2CCC(O)(c3ccc(Cl)cc3)CC2)cc1	C-C chemokine receptor type 1 (Homo sapiens, UniProt P32246)	3.59
O=S(=O)(c1ccccc1Br)N1CCC(N2CCC(O)(c3ccc(Cl)cc3)CC2)CC1	C-C chemokine receptor type 1 (Homo sapiens, UniProt P32246)	1.95

Task item: Consider the compound "N#CC1(c2ccc(Cl)cc2)CCN(CCCNS(=O)(=O)c2ccccc2Cl)CC1" and give its measured log10(IC50).
Reply: 2.78

Task item: Consider the compound "O=S(=O)(NCCCN1CCC(O)(c2ccc(Cl)cc2)CC1)c1ccsc1" and give its measured log10(IC50).
Reply: 2.76

---

TARGET OF ASSAY: C-C chemokine receptor type 1 (Homo sapiens, UniProt P32246)
PROTOCOL DETAILS: Antagonist activity at human CCR1 receptor expressed in THP1 cells assessed as human MIP-1-alpha-stimulated intracellular calcium level by FLIPR assay
Assay type: functional, cell-based, THP-1
pIC50: −log10 of the molar value.
Rule: pIC50 under 6 gives not met, otherwise met.

COMPOUND	CAT
O=S(=O)(c1ccccc1Cl)N1CCC(N2CCCC(O)(c3ccc(Cl)cc3)CC2)CC1 (stereo not given)	met

Task item: Is the recorded value of pIC50 equal to or greater than 6 for this compound? "O=S(=O)(c1ccccc1Cl)N1CCC[C@H](N2CCC(O)(c3ccc(Cl)cc3)CC2)C1"
Reply: not met

Task item: Is the recorded value of pIC50 equal to or greater than 6 for this compound? "Cc1cccc(Cl)c1S(=O)(=O)N1CCC(C)(N2CCC(O)(c3ccc(Cl)cc3)CC2)CC1"
Reply: not met

Task item: Is the recorded value of pIC50 equal to or greater than 6 for this compound? "O=S(=O)(c1ccccc1Br)N1CCC(N2CCC(O)(c3ccc(Cl)cc3)CC2)CC1"
Reply: met

Task item: Is the recorded value of pIC50 equal to or greater than 6 for this compound? "O=S(=O)(NCCCN1CCC(O)(c2ccc(Cl)cc2)CC1)c1ccc(Cl)cc1"
Reply: met

Task item: Is the recorded value of pIC50 equal to or greater than 6 for this compound? "O=S(=O)(c1ccccc1Cl)N1CCC(N2CCC(O)(c3ccc(Br)cc3)CC2)CC1"
Reply: met

Task item: Is the recorded value of pIC50 equal to or greater than 6 for this compound? "O=S(=O)(c1ccccc1Cl)N1CCC(N2CCC(O)(c3ccc(-c4ccccc4)cc3)CC2)CC1"
Reply: not met

Task item: Is the recorded value of pIC50 equal to or greater than 6 for this compound? "Cc1cccc(Cl)c1S(=O)(=O)N1CCC(N2CCC(O)(c3ccc(Cl)cc3)CC2)CC1"
Reply: met

---

TARGET OF ASSAY: C-C chemokine receptor type 1 (Homo sapiens)
Sequence (P32246 whole entry): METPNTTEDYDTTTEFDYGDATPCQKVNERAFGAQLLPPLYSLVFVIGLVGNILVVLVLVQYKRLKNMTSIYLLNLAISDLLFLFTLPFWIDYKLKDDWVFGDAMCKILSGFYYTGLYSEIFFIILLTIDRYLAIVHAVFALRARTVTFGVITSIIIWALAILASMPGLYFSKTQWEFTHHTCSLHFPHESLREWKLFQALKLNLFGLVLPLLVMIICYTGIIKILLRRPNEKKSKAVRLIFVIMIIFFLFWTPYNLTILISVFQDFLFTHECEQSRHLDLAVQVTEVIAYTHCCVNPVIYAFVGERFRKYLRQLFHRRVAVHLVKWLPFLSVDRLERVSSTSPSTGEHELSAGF
PROTOCOL DETAILS: Displacement of [125I]MIP1-alpha from human CCR1 receptor expressed in THP1 cells
Assay type: cell-based, THP-1
hey, just use 1 (yes) if measured IC50 is less than 900 nM, otherwise 0 (no)

CHEMICAL STRING	CAT
O=S(=O)(c1ccccc1Cl)N1CCC(N2CCC(O)(c3ccc(-c4ccccc4)cc3)CC2)CC1	0 (no)
O=S(=O)(c1ccccc1Cl)N1CCC[C@H](N2CCC(O)(c3ccc(Cl)cc3)CC2)C1	0 (no)
COc1ccc(C2(O)CCN(C3CCN(S(=O)(=O)c4ccccc4Cl)CC3)CC2)cc1	0 (no)

Task item: I wonder whether "O=S(=O)(NCCCN1CCC(O)(c2ccc(Cl)cc2)CC1)c1ccc(Cl)cc1" has IC50 below 900 nM. Can you tell?
Reply: 1 (yes)

Task item: I wonder whether "O=S(=O)(NCCCN1CCC(O)(c2ccc(Cl)cc2)CC1)c1cccs1" has IC50 below 900 nM. Can you tell?
Reply: 1 (yes)
